tested on: RAW264.7; assay: Inhibition of LPS-stimulated TNF-alpha production in mouse RAW264.7 cells at 1 to 128 ug/ml incubated for 24 hrs by ELISA analysis; assay type: functional, cell-based; settings: dose 1-128 µg/ml
The source made the active and inactive calls. The rule behind the calls is not given here. Peptide text beside a SMILES is read from it.
observed.property: inhibition

compound | target | endpoint.result
C[C@@H](O)[C@H](NC(=O)[C@H](CS)NC(=O)[C@H](CCCCN)NC(=O)[C@H](Cc1c[nH]c2ccccc12)NC(=O)[C@H](CCCCN)NC(=O)[C@@H](N)Cc1c[nH]c2ccccc12)C(=O)N[C@@H](CCCCN)C(=O)N[C@@H](CO)C(=O)NCC(=O)N[C@@H](CS)C(=O)N[C@@H](CCCCN)C(=O)N[C@@H](Cc1c[nH]c2ccccc12)C(=O)N[C@@H](CCCCN)C(=O)N[C@@H](Cc1c[nH]c2ccccc12)C(N)=O (H-WKWKCTKSGCKWKW-NH2) | RAW264.7 | Active
CC(C)[C@H](N)C(=O)N[C@@H](CCCCN)C(=O)N[C@@H](CS)C(=O)N[C@H](C(=O)N[C@@H](CCCCN)C(=O)N[C@@H](CO)C(=O)NCC(=O)N[C@@H](CS)C(=O)N[C@@H](CCCCN)C(=O)N[C@H](C(N)=O)C(C)C)[C@@H](C)O (H-VKCTKSGCKV-NH2) | RAW264.7 | Active
CC(C)C[C@H](NC(=O)[C@H](CCCCN)NC(=O)[C@H](CS)NC(=O)CNC(=O)[C@H](CO)NC(=O)[C@H](CCCCN)NC(=O)[C@@H](NC(=O)[C@H](CS)NC(=O)[C@H](CCCCN)NC(=O)[C@@H](N)CC(C)C)[C@@H](C)O)C(N)=O (H-LKCTKSGCKL-NH2) | RAW264.7 | Active

###

system: Salmonella typhimurium; assay: Antibacterial activity against Salmonella typhimurium DT104 in the presence 25% inactivated mouse serum by MH broth based assay; type: functional, Salmonella enterica subsp. enterica serovar Typhimurium; details: Salmonella enterica
Peptide text beside a SMILES is read from it.
For each record, write down the corresponding MIC.

*Q* Which MIC is reported for this compound? CC(C)[C@H](NC(=O)CNC(=O)[C@H](CC(N)=O)NC(=O)CNC(=O)[C@H](Cc1ccc(O)cc1)NC(=O)[C@H](Cc1ccc(O)cc1)NC(=O)[C@@H](N)CCCCN)C(=O)N[C@@H](Cc1c[nH]cn1)C(=O)N[C@@H](CS)C(=O)N[C@H](C(=O)N[C@@H](CCCCN)C(=O)N[C@@H](CO)C(=O)NCC(=O)N[C@@H](CS)C(=O)N[C@@H](CO)C(=O)N[C@H](C(=O)N[C@@H](CC(N)=O)C(=O)N[C@@H](Cc1c[nH]c2ccccc12)C(N)=O)C(C)C)[C@@H](C)O (H-KYYGNGVHCTKSGCSVNW-NH2)
*A* > 128 µg/mL

*Q* Further, for CC(C)C[C@H](NC(=O)[C@H](CCCCN)NC(=O)[C@H](CS)NC(=O)CNC(=O)[C@H](CO)NC(=O)[C@H](CCCCN)NC(=O)[C@@H](NC(=O)[C@H](CS)NC(=O)[C@H](CCCCN)NC(=O)[C@@H](N)CC(C)C)[C@@H](C)O)C(N)=O (H-LKCTKSGCKL-NH2) ?
*A* > 128 µg/mL

*Q* Check CC(C)[C@H](N)C(=O)N[C@@H](CCCCN)C(=O)N[C@H](C(=O)N[C@@H](CCCCN)C(=O)N[C@@H](CS)C(=O)N[C@H](C(=O)N[C@@H](CCCCN)C(=O)N[C@@H](CO)C(=O)NCC(=O)N[C@@H](CS)C(=O)N[C@@H](CCCCN)C(=O)N[C@H](C(=O)N[C@@H](CCCCN)C(=O)N[C@H](C(N)=O)C(C)C)C(C)C)[C@@H](C)O)C(C)C (H-VKVKCTKSGCKVKV-NH2) too.
*A* > 128 µg/mL

*Q* // same read-out, input: CC(C)C[C@H](NC(=O)[C@H](CCCCN)NC(=O)[C@H](CC(C)C)NC(=O)[C@H](CCCCN)NC(=O)[C@H](CC(C)C)NC(=O)[C@H](CCCCN)NC(=O)[C@H](CS)NC(=O)CNC(=O)[C@H](CO)NC(=O)[C@H](CCCCN)NC(=O)[C@@H](NC(=O)[C@H](CS)NC(=O)[C@H](CCCCN)NC(=O)[C@H](CC(C)C)NC(=O)[C@H](CCCCN)NC(=O)[C@H](CC(C)C)NC(=O)[C@H](CCCCN)NC(=O)[C@@H](N)CC(C)C)[C@@H](C)O)C(N)=O (H-LKLKLKCTKSGCKLKLKL-NH2)
*A* > 128 µg/mL

*Q* Subsequent entry: CC(C)C[C@H](NC(=O)[C@H](CCCNC(=N)N)NC(=O)CNC(=O)CNC(=O)[C@@H](N)CCCNC(=N)N)C(=O)N[C@H]1CSSC[C@@H](C(=O)N[C@H](C(=O)NCC(=O)N[C@@H](CCCNC(=N)N)C(N)=O)C(C)C)NC(=O)[C@H](C(C)C)NC(=O)[C@@H]2CSSC[C@H](NC(=O)[C@H](Cc3ccc(O)cc3)NC1=O)C(=O)N[C@@H](CCCNC(=N)N)C(=O)N[C@@H](CCCNC(=N)N)C(=O)N[C@@H](CCCNC(=N)N)C(=O)N[C@@H](Cc1ccccc1)C(=O)N2
*A* 32 µg/mL

*Q* Here is the next compound: C[C@@H](O)[C@H](NC(=O)[C@H](CS)NC(=O)[C@H](CCCCN)NC(=O)[C@@H](N)Cc1c[nH]c2ccccc12)C(=O)N[C@@H](CCCCN)C(=O)N[C@@H](CO)C(=O)NCC(=O)N[C@@H](CS)C(=O)N[C@@H](CCCCN)C(=O)N[C@@H](Cc1c[nH]c2ccccc12)C(N)=O (H-WKCTKSGCKW-NH2)
*A* > 128 µg/mL

*Q* Also check CC(C)[C@H](N)C(=O)N[C@@H](CCCCN)C(=O)N[C@@H](CS)C(=O)N[C@H](C(=O)N[C@@H](CCCCN)C(=O)N[C@@H](CO)C(=O)NCC(=O)N[C@@H](CS)C(=O)N[C@@H](CCCCN)C(=O)N[C@H](C(N)=O)C(C)C)[C@@H](C)O (H-VKCTKSGCKV-NH2)
*A* > 128 µg/mL

*Q* Check CC(C)[C@H](N)C(=O)N[C@@H](CCCCN)C(=O)N[C@H](C(=O)N[C@@H](CCCCN)C(=O)N[C@H](C(=O)N[C@@H](CCCCN)C(=O)N[C@@H](CS)C(=O)N[C@H](C(=O)N[C@@H](CCCCN)C(=O)N[C@@H](CO)C(=O)NCC(=O)N[C@@H](CS)C(=O)N[C@@H](CCCCN)C(=O)N[C@H](C(=O)N[C@@H](CCCCN)C(=O)N[C@H](C(=O)N[C@@H](CCCCN)C(=O)N[C@H](C(N)=O)C(C)C)C(C)C)C(C)C)[C@@H](C)O)C(C)C)C(C)C (H-VKVKVKCTKSGCKVKVKV-NH2) too.
*A* > 128 µg/mL

*Q* What would you report for CC(C)C[C@H](NC(=O)[C@H](CCCCN)NC(=O)[C@H](CC(C)C)NC(=O)[C@H](CCCCN)NC(=O)[C@H](CS)NC(=O)CNC(=O)[C@H](CO)NC(=O)[C@H](CCCCN)NC(=O)[C@@H](NC(=O)[C@H](CS)NC(=O)[C@H](CCCCN)NC(=O)[C@H](CC(C)C)NC(=O)[C@H](CCCCN)NC(=O)[C@@H](N)CC(C)C)[C@@H](C)O)C(N)=O (H-LKLKCTKSGCKLKL-NH2) ?
*A* 64 µg/mL

*Q* Moving on to C[C@@H](O)[C@H](NC(=O)[C@H](CS)NC(=O)[C@H](CCCCN)NC(=O)[C@H](Cc1c[nH]c2ccccc12)NC(=O)[C@H](CCCCN)NC(=O)[C@@H](N)Cc1c[nH]c2ccccc12)C(=O)N[C@@H](CCCCN)C(=O)N[C@@H](CO)C(=O)NCC(=O)N[C@@H](CS)C(=O)N[C@@H](CCCCN)C(=O)N[C@@H](Cc1c[nH]c2ccccc12)C(=O)N[C@@H](CCCCN)C(=O)N[C@@H](Cc1c[nH]c2ccccc12)C(N)=O (H-WKWKCTKSGCKWKW-NH2)
*A* 16 µg/mL

###

test system: Enterococcus faecalis; assay: Antibacterial activity against Enterococcus faecalis ATCC 29212 incubated overnight by standard microtiter dilution method; assay type: functional
Peptide text beside a SMILES is read from it.
observed.property: MIC

*Q* Find the recorded MIC belonging to CN[C@@H]1[C@H](O[C@H]2[C@H](O[C@H]3[C@H](O)[C@@H](O)[C@H](N=C(N)N)[C@@H](O)[C@@H]3N=C(N)N)O[C@@H](C)[C@]2(O)C=O)O[C@@H](CO)[C@H](O)[C@H]1O [STREPTOMYCIN] and report it.
*A* 64 µg/mL

*Q* Consider next the compound CC(C)[C@H](NC(=O)CNC(=O)[C@H](CC(N)=O)NC(=O)CNC(=O)[C@H](Cc1ccc(O)cc1)NC(=O)[C@H](Cc1ccc(O)cc1)NC(=O)[C@@H](N)CCCCN)C(=O)N[C@@H](Cc1c[nH]cn1)C(=O)N[C@@H](CS)C(=O)N[C@H](C(=O)N[C@@H](CCCCN)C(=O)N[C@@H](CO)C(=O)NCC(=O)N[C@@H](CS)C(=O)N[C@@H](CO)C(=O)N[C@H](C(=O)N[C@@H](CC(N)=O)C(=O)N[C@@H](Cc1c[nH]c2ccccc12)C(N)=O)C(C)C)[C@@H](C)O (H-KYYGNGVHCTKSGCSVNW-NH2) in the same way.
*A* > 128 µg/mL

*Q* Please give the result for C[C@@H](O)[C@H](NC(=O)[C@H](CS)NC(=O)[C@H](CCCCN)NC(=O)[C@H](Cc1c[nH]c2ccccc12)NC(=O)[C@H](CCCCN)NC(=O)[C@@H](N)Cc1c[nH]c2ccccc12)C(=O)N[C@@H](CCCCN)C(=O)N[C@@H](CO)C(=O)NCC(=O)N[C@@H](CS)C(=O)N[C@@H](CCCCN)C(=O)N[C@@H](Cc1c[nH]c2ccccc12)C(=O)N[C@@H](CCCCN)C(=O)N[C@@H](Cc1c[nH]c2ccccc12)C(N)=O (H-WKWKCTKSGCKWKW-NH2) too.
*A* 2 µg/mL

*Q* Now the compound CC(C)[C@H](N)C(=O)N[C@@H](CCCCN)C(=O)N[C@H](C(=O)N[C@@H](CCCCN)C(=O)N[C@H](C(=O)N[C@@H](CCCCN)C(=O)N[C@@H](CS)C(=O)N[C@H](C(=O)N[C@@H](CCCCN)C(=O)N[C@@H](CO)C(=O)NCC(=O)N[C@@H](CS)C(=O)N[C@@H](CCCCN)C(=O)N[C@H](C(=O)N[C@@H](CCCCN)C(=O)N[C@H](C(=O)N[C@@H](CCCCN)C(=O)N[C@H](C(N)=O)C(C)C)C(C)C)C(C)C)[C@@H](C)O)C(C)C)C(C)C (H-VKVKVKCTKSGCKVKVKV-NH2)
*A* 4 µg/mL

*Q* Also, CC(C)C[C@H](NC(=O)[C@H](CCCCN)NC(=O)[C@H](CC(C)C)NC(=O)[C@H](CCCCN)NC(=O)[C@H](CS)NC(=O)CNC(=O)[C@H](CO)NC(=O)[C@H](CCCCN)NC(=O)[C@@H](NC(=O)[C@H](CS)NC(=O)[C@H](CCCCN)NC(=O)[C@H](CC(C)C)NC(=O)[C@H](CCCCN)NC(=O)[C@@H](N)CC(C)C)[C@@H](C)O)C(N)=O (H-LKLKCTKSGCKLKL-NH2) please.
*A* 32 µg/mL

*Q* Let us now turn to C[C@@H](O)[C@H](NC(=O)[C@H](CS)NC(=O)[C@H](CCCCN)NC(=O)[C@@H](N)Cc1c[nH]c2ccccc12)C(=O)N[C@@H](CCCCN)C(=O)N[C@@H](CO)C(=O)NCC(=O)N[C@@H](CS)C(=O)N[C@@H](CCCCN)C(=O)N[C@@H](Cc1c[nH]c2ccccc12)C(N)=O (H-WKCTKSGCKW-NH2)
*A* 128 µg/mL

*Q* Cool, now CC(C)C[C@H](NC(=O)[C@H](CCCCN)NC(=O)[C@H](CC(C)C)NC(=O)[C@H](CCCCN)NC(=O)[C@H](CC(C)C)NC(=O)[C@H](CCCCN)NC(=O)[C@H](CS)NC(=O)CNC(=O)[C@H](CO)NC(=O)[C@H](CCCCN)NC(=O)[C@@H](NC(=O)[C@H](CS)NC(=O)[C@H](CCCCN)NC(=O)[C@H](CC(C)C)NC(=O)[C@H](CCCCN)NC(=O)[C@H](CC(C)C)NC(=O)[C@H](CCCCN)NC(=O)[C@@H](N)CC(C)C)[C@@H](C)O)C(N)=O (H-LKLKLKCTKSGCKLKLKL-NH2)
*A* 64 µg/mL
